// data source = patent US20120302530A1

# Test system: C8166 (human T cell line)
# PROTOCOL_SUMMARY: Toxicity to C8166 cells (MTT, day 7)
# Format: cell-based
# ASSAY_CONDITIONS: Homo sapiens, C8166, 168 h, read-out: IC50 (50% inhibition concentration) to C8166 cell
pIC50: −log10 of the molar value.
MEASURED_ATTRIBUTE: pIC50

[[record]]
molecule = "C=C(C)C1CCC2(C(=O)O)CCC3(C)C(CCC4C5(C)CCC(=O)C(C)(CO)C5CCC43C)C12 (stereo not shown)"
test_result = 5.64


###

# Test system: PC3
# PROTOCOL_SUMMARY: MTT cytotoxicity, human tumor cell strain
# Format: cell-based
# ASSAY_CONDITIONS: PC-3, PC3, Prostate, 72 hours
MEASURED_ATTRIBUTE: EC50

[[record]]
compound = "CC(C)C1CCC2(C(=O)O)CCC3(C)C(CCC4C5(C)CCC(=O)C(C)(CO)C5CCC43C)C12 (stereo not drawn)"
measured_attribute = "EC50"
test_result = "16.2 µM"

[[record]]
compound = "CC(C)C1CCC2(C(=O)O)CCC3(C)C(CCC4C5(C)CCC(O)C(C)(CO)C5CCC43C)C12 (stereo not drawn) [zhangnan-8, 23-hydroxyl-dihydrobetulinic acid]"
measured_attribute = "EC50"
test_result = "8.9 µM"

[[record]]
compound = "C=C(C)C1CCC2(C(=O)O)CCC3(C)C(CCC4C5(C)CCC(=O)C(C)(CO)C5CCC43C)C12 (stereo not drawn)"
measured_attribute = "EC50"
test_result = "0.91 µM"

